# System: EKVX NSCLC
# experiment-description: NCI-60 one-dose screen, 48 h (100 = growth as untreated, 0 = no growth, -100 = all killed)
# experimental-conditions: 10 µM unless noted
# Description: Growth inhibition of the EKVX human Non-Small Cell Lung tumor cell line is measured as a screen for anti-cancer activity. Cells are grown in 96 well plates and exposed to the test compound for 48 hours. Compounds are tested at a single concentration, which is 10^-5 M for most compounds. The reported endpoint is percent growth (GI% or GIPRCNT), where numbers from 0 - 100% represent growth inhibition, and numbers from -100% - 0 represent cell death. […]
The panel holds about 83,000 compounds, 20% with a hit somewhere; the sample as a whole holds those more often.
Overview of reported growth across a group of compounds:
Only the number, expressed in %, is required.

Record excerpt, results attached:
{"columns": ["structure-smiles-string", "growth [%]"],
 "data": [
  ["COc1ccc(OC)c(-c2c(C#N)c(-c3cccs3)nc3c2c(-c2ccccc2)nn3-c2ccccc2)c1", 99.7],
  ["C[C@]12CC[C@@H]3c4ccc(O)c([N+](=O)[O-])c4CC[C@H]3[C@@H]1CCC2=O", 58.5],
  ["COc1ccc(/C=N/NC(=O)CCN2c3ccccc3Sc3ccccc32)cc1", 79.7],
  ["O=c1oc2c(cnc3ccccc32)cc1-c1ccsc1", 95]
]}

Would you kindly look at the next entry?
Hello, I am looking for reported growth with EKVX NSCLC for "COc1cc(/C=C/C(=O)c2cccc(Nc3nc(Nc4ccccc4)nc(Nc4ccccc4)n3)c2)cc(OC)c1OC" . Could you help?
66.1

----------
# System: K-562 leukemia
# experiment-description: NCI-60 one-dose screen, 48 h
# experimental-conditions: 10 µM unless noted
This is part of a sample that, as a whole, favours compounds with a hit. Of some 83,000 tested, about 20% had one in any assay. The source made the active and inactive calls. Rule for the calls: active = growth percent below 10; inactive = the rest.
Give one outcome, nothing more. List: active, inactive

Outcome? N#CC1=C(N)Oc2c(sc3c(F)cccc23)C1c1ccc(F)cc1 (stereo not given)
inactive

Outcome? "CN(C)CC(=O)Nc1ccc2ncnc(Nc3ccc(Oc4cccc(C(F)(F)F)c4)c(Cl)c3)c2c1"
active

Outcome? "O=S(=O)(Nc1cc(Br)c(O)c2ccccc12)c1ccc(F)cc1"
inactive

Outcome? "CC(C)CCNC(=O)Cn1cccc(NC(=O)OCc2ccccc2)c1=O"
inactive

Outcome? "CO/N=C(/C)c1ccc(NC(=O)CSc2nnc(-c3ccncc3)n2-c2ccccc2)cc1"
inactive

----------
# System: HS 578T breast
# experiment-description: NCI-60 one-dose screen, 48 h
# experimental-conditions: 10 µM unless noted
This is part of a sample that, as a whole, favours compounds with a hit. Of some 83,000 tested, about 20% had one in any assay. The source made the active and inactive calls. The calls were made as follows: active = growth percent below 10; inactive = the rest.
Give one outcome, nothing more. List: active, inactive

{"columns": ["compound", "answer-label"],
 "data": [
  ["Cc1ccc(CNc2ccc(Cl)cc2NCc2ccc(C)c(O)c2)cc1O", "inactive"]
]}

Outcome? "Cc1cc2c([nH]1)CSc1cc(S(=O)(=O)c3ccccc3)c(=O)[nH]c1-2"
inactive

Outcome? "CN1CCN(c2ccc(NC(=O)c3cncnc3Nc3ccc(OCc4ccccn4)c(Cl)c3)cc2)CC1"
inactive

Outcome? "COc1ccc2[nH]cc(-c3nc(-c4cn(C)c5c(Cl)nccc45)cs3)c2c1"
inactive

Outcome? COc1cc2c(c(OC)c1OC)CCC(c1cccc(C(=O)Nc3cccc(Br)c3)c1)O2 (stereo not given)
inactive

Outcome? CC(C)NC1CCC(Nc2ccnc3cc(Cl)ccc23)CC1 (stereo not given)
inactive

Outcome? "O=C(NCCCN1CCOCC1)c1cccc(N2C(=O)/C(=C/c3ccc(F)cc3)SC2=S)c1"
inactive

Outcome? "Cc1ccc(-c2cc(-c3ccc(Cl)cc3)nc(NC(=O)c3cccnc3)n2)cc1"
inactive

Outcome? "CCN(CC)CCOc1ccc(C(=C(C)c2ccc(Cl)cc2)c2ccc(OCCN(CC)CC)cc2)cc1"
active

Outcome? "O=C(Nc1cccc([N+](=O)[O-])c1)c1cc2ccccc2cc1O"
active

Outcome? "O=C1Nc2ccccc2[C@]12CC(c1ccccc1)=NN2"
inactive

Outcome? "COc1cc(-c2csc(NC(=O)c3cc(-n4cnc(C)c4)cc(C(F)(F)F)c3)n2)cc(OC)c1OC"
inactive

Outcome? "CC(C)c1ccc(NC(=O)Nc2ccc(NC(=O)CCCC(=O)NOCc3ccccc3)cc2)cc1"
inactive
